Value source: patent US8980899B2

# assayed.system: yeast Ire1 (Saccharomyces cerevisiae)
# Sequence (P32361 19-1115): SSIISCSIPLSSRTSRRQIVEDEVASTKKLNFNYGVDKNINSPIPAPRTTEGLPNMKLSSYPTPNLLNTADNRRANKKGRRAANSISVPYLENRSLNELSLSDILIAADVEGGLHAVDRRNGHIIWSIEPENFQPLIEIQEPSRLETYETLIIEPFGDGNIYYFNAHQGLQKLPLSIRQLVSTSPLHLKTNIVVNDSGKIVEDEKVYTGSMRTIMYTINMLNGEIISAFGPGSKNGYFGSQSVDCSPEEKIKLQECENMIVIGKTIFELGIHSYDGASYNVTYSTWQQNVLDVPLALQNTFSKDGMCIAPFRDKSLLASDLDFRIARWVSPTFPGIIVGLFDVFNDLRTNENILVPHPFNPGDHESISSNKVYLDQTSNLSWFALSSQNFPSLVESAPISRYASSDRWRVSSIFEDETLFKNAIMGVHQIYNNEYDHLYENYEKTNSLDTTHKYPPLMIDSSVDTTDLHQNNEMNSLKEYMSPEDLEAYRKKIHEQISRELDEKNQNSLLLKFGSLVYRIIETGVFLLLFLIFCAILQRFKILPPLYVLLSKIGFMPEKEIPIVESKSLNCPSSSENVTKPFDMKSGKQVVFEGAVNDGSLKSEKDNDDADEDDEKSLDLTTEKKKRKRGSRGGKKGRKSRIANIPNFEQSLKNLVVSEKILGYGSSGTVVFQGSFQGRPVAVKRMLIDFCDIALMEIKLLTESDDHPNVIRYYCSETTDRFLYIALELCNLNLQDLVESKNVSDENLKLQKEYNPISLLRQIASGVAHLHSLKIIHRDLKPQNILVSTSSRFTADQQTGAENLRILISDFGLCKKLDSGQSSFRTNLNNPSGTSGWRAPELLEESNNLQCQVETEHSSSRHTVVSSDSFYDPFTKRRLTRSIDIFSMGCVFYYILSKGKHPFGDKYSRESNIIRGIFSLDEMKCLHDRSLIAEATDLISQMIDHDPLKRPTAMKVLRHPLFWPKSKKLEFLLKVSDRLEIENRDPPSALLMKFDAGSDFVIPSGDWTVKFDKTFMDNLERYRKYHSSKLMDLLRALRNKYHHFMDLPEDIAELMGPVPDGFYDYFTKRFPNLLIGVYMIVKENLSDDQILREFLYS
# protocol.summary: In vitro inhibition assay, cleavage of 32P-labeled RNA by yeast Ire1
# Assay type: biochemical
# condition.summary: RNA cleavage, 32P-labeled RNA, 30° C.; Control (no inhibitor) 0.1149
So basically: Ire1 activity with yeast Ire1 at 0.003 or higher? That is y. Lower than 0.003? That is n.

Use these answered entries as a reference point.
[[record]]
compound = "Nc1ncnc2c1c(Cc1cccc(NC(=O)c3cccc(C(F)(F)F)c3)c1)nn2Cc1ccccc1"
assayed_system = "yeast Ire1 (Saccharomyces cerevisiae)"
class = "y"

[[record]]
compound = "Nc1ncnc2c1c(-c1ccc(NC(=O)Nc3cccc(C(F)(F)F)c3)cc1)nn2C1CCCC1"
assayed_system = "yeast Ire1 (Saccharomyces cerevisiae)"
class = "n"

[[record]]
compound = "CC(C)n1nc(Cc2cccc(NC(=O)Nc3cccc(C(F)(F)F)c3)c2)c2c(N)ncnc21"
assayed_system = "yeast Ire1 (Saccharomyces cerevisiae)"
class = "n"

[[record]]
compound = "CC(C)n1nc(-c2ccc(NC(=O)Nc3cccc(C(F)(F)F)c3)cc2)c2c(N)ncnc21"
assayed_system = "yeast Ire1 (Saccharomyces cerevisiae)"
class = "y"


Read the next record carefully.
API: above_or_equal(metric=Ire1 activity with yeast Ire1, cutoff=0.003) for item CNC(=O)c1cc(Oc2ccc(NC(=O)Nc3ccc(Cl)c(C(F)(F)F)c3)cc2)ccn1 [Sorafenib, reference compound]
y

----------
# assayed.system: Recombinant human Ire1-alpha (Homo sapiens, UniProt O75460)
# protocol.summary: In vitro inhibition assay, cleavage of 32P-stem-loop RNA by human Ire1
# Type: biochemical
# Set-up: unit not given here
# condition.summary: RNA cleavage, 1 μM Ire1, 32P-labeled RNA, 30° C.; Control (no inhibitor) 0.085
endpoint.label: Ire1 activity with human Ire1 alpha
Reply with just the number.

[[record]]
compound = "CC(C)n1nc(Cc2cccc(NC(=O)Nc3cccc(C(F)(F)F)c3)c2)c2c(N)ncnc21"
endpoint_label = "Ire1 activity with human Ire1 alpha"
value_measured = 0.09575

[[record]]
compound = "Nc1ncnc2c1c(Cc1cccc(NC(=O)Nc3cccc(C(F)(F)F)c3)c1)nn2Cc1ccccc1"
endpoint_label = "Ire1 activity with human Ire1 alpha"
value_measured = 0.1506


Here `CC(C)n1nc(-c2ccc(NC(=O)Nc3cccc(C(F)(F)F)c3)cc2)c2c(N)ncnc21` was tested on Recombinant human Ire1-alpha (Homo sapiens, UniProt O75460), and its Ire1 activity with human Ire1 alpha came to 0.05508

Record for `Nc1ncnc2c1c(-c1ccc(NC(=O)Nc3cccc(C(F)(F)F)c3)cc1)nn2C1CCCC1` under target or system Recombinant human Ire1-alpha (Homo sapiens, UniProt O75460): Ire1 activity with human Ire1 alpha reported as 0.02258

Value sought: Ire1 activity with human Ire1 alpha, system Recombinant human Ire1-alpha (Homo sapiens, UniProt O75460), item CNC(=O)c1cc(Oc2ccc(NC(=O)Nc3ccc(Cl)c(C(F)(F)F)c3)cc2)ccn1 [Sorafenib, reference compound] . Result: 0.03645

Case `Nc1ncnc2c1c(Cc1cccc(NC(=O)c3cccc(C(F)(F)F)c3)c1)nn2Cc1ccccc1` , Recombinant human Ire1-alpha (Homo sapiens, UniProt O75460), Ire1 activity with human Ire1 alpha recorded as 0.1247

----------
# assayed.system: Recombinant human Ire1-alpha (Homo sapiens)
# protocol.summary: In vitro inhibition assay, cleavage of 32P-stem-loop RNA by human Ire1
# Assay type: biochemical
# condition.summary: in vitro cleavage of 32P-stem-loop RNA by human Ire1, AD series; Control (no inhibitor) 8.8310e−3
endpoint.label: Ire1 activity
In your answer, state the number alone without any accompanying words.

Solved cases (3 shown):
[[record]]
compound = "Nc1ncnc2c1c(-c1ccc(NC(=O)Nc3cccc(C(F)(F)F)c3)cc1)nn2CCCO [AD64]"
assayed_system = "Recombinant human Ire1-alpha (Homo sapiens)"
value_measured = "6.9280e−4"

[[record]]
compound = "Nc1ncnc2c1c(-c1ccc(NC(=O)Nc3cccc(C(F)(F)F)c3)cc1)nn2[C@@H]1CCOC1 [AD69]"
assayed_system = "Recombinant human Ire1-alpha (Homo sapiens)"
value_measured = 0.0127

[[record]]
compound = "Nc1ncnc2c1c(-c1ccc(NC(=O)Nc3cccc(C(F)(F)F)c3)cc1)nn2[C@H]1CCOC1 [AD66]"
assayed_system = "Recombinant human Ire1-alpha (Homo sapiens)"
value_measured = 0.0107


Consider the additional compound presented here.
Quick note, Ire1 activity for Nc1ncnc2c1c(-c1ccc(NC(=O)Nc3cccc(C(F)(F)F)c3)cc1)nn2[C@@H]1CCN(C(=O)Nc2cccc(C(F)(F)F)c2)C1 [AD73c] landed at 2.9310e−4

----------
# assayed.system: hIre1 (Homo sapiens, UniProt O75460)
# Sequence (O75460 19-977): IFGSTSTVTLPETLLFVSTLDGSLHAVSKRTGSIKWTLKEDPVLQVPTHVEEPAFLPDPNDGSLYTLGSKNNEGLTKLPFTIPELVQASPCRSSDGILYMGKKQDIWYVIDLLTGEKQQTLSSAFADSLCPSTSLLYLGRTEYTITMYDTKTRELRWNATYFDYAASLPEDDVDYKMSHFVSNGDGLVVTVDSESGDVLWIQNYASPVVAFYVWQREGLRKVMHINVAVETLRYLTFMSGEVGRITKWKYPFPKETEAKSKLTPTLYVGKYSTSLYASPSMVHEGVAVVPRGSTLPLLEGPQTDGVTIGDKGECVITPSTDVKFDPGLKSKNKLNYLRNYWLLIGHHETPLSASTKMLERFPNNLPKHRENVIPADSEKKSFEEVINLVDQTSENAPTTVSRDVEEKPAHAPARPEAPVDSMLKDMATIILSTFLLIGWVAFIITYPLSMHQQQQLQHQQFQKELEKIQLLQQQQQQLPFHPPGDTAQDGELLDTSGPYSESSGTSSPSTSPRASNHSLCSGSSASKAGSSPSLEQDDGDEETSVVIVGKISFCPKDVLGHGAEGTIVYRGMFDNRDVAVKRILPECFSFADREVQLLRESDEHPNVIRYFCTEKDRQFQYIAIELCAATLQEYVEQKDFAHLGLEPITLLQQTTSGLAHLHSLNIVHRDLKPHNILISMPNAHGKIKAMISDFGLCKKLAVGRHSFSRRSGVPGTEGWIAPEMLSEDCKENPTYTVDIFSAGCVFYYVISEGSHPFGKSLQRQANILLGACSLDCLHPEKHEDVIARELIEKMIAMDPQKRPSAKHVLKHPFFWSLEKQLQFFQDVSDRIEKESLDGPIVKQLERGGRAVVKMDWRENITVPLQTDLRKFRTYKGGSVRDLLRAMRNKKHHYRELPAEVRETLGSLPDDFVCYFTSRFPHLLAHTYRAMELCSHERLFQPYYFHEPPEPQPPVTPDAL
Known Ki of a selection of compounds

[[record]]
smiles_string = "Cn1nc(-c2ccc(NC(=O)Nc3cccc(C(F)(F)F)c3)cc2)c2c(N)ncnc21"
endpoint_label = "Ki"
value_measured = "~1 µM"


# ---- query compound ----
The compound `Nc1ncnc2c1c(-c1ccc(NC(=O)Nc3cccc(C(F)(F)F)c3)cc1)nn2CCCO` on hIre1 (Homo sapiens, UniProt O75460): Ki was ~1 µM

----------
molecules and their reported Ire1 activity
# assayed.system: Recombinant human Ire1-alpha (Homo sapiens, UniProt O75460)
# protocol.summary: In vitro inhibition assay, cleavage of 32P-stem-loop RNA by human Ire1
# Format: biochemical
# condition.summary: in vitro cleavage of 32P-stem-loop RNA by human Ire1, AD series; Control (no inhibitor) 8.8310e−3
Lab note: write the figure by itself, no unit.

[[record]]
molecule = "Nc1ncnc2c1c(-c1ccc(NC(=O)c3cccc(C(F)(F)F)c3)cc1)nn2[C@@H]1CCOC1"
value_measured = "8.4550e−3"

[[record]]
molecule = "Nc1ncnc2c1c(-c1ccc(NC(=O)c3cccc(C(F)(F)F)c3)cc1)nn2[C@@H]1CCNC1"
value_measured = "6.4950e−3"


Lookup result for Nc1ncnc2c1c(-c1ccc(NC(=O)Nc3cccc(C(F)(F)F)c3)cc1)nn2[C@H]1CCN(C(=O)Nc2cccc(C(F)(F)F)c2)C1 [AD71c] ; measured Ire1 activity: 1.2650e−3

----------
# assayed.system: Recombinant human Ire1-alpha (Homo sapiens, UniProt O75460)
# protocol.summary: In vitro inhibition assay, cleavage of 32P-stem-loop RNA by human Ire1
# Format: biochemical
# condition.summary: in vitro cleavage of 32P-stem-loop RNA by human Ire1, AD series; Control (no inhibitor) 8.8310e−3
# Ire1 activity annotations
A bare number is all that is needed in reply.

Examples with answers:
[[record]]
smiles_string = "Nc1ncnc2c1c(-c1ccc(NC(=O)Nc3cccc(C(F)(F)F)c3)cc1)nn2C1CCCC1"
value_measured = "4.0180e−3"

[[record]]
smiles_string = "Nc1ncnc2c1c(-c1ccc(NC(=O)c3cccc(C(F)(F)F)c3)cc1)nn2[C@H]1CCOC1"
value_measured = 0.0100

[[record]]
smiles_string = "Cn1nc(-c2ccc(NC(=O)Nc3cccc(C(F)(F)F)c3)cc2)c2c(N)ncnc21"
value_measured = "3.0550e−3"


Please turn your attention to the following entry.
`Nc1ncnc2c1c(-c1ccc(NC(=O)c3cccc(C(F)(F)F)c3)cc1)nn2[C@H]1CCNC1` yielded Ire1 activity of 9.0580e−3
